- Measured target: PB2 (Influenza A virus)
- Assay notes: biochemical
For each of the compounds below, state its EC50.

Param readout = EC50; param system = PB2 (Influenza A virus); param query = `O=C(NCc1cccnc1)OCc1ccnc(C(=O)N[C@@H]2CCC[C@H](Nc3nc(-c4c[nH]c5ncc(F)cc45)ncc3F)C2)c1` ; response: value
5 to 25 µM

Now this one: `CCOCCOCCCCCN1CC(=O)N([C@@H]2CCC[C@H](Nc3nc(-c4c[nH]c5ncc(F)cc45)ncc3F)C2)C1=O`
> 100 µM

Next record, please: `CCOCCOc1cccc(CC(=O)N[C@H]2CCC[C@@H](Nc3nc(-c4c[nH]c5ncc(F)cc45)ncc3F)C2)c1`
> 100 µM

###

- Measured target: PB2 (Influenza A virus, UniProt P03428)
- Sequence (P03428 whole entry, looked up): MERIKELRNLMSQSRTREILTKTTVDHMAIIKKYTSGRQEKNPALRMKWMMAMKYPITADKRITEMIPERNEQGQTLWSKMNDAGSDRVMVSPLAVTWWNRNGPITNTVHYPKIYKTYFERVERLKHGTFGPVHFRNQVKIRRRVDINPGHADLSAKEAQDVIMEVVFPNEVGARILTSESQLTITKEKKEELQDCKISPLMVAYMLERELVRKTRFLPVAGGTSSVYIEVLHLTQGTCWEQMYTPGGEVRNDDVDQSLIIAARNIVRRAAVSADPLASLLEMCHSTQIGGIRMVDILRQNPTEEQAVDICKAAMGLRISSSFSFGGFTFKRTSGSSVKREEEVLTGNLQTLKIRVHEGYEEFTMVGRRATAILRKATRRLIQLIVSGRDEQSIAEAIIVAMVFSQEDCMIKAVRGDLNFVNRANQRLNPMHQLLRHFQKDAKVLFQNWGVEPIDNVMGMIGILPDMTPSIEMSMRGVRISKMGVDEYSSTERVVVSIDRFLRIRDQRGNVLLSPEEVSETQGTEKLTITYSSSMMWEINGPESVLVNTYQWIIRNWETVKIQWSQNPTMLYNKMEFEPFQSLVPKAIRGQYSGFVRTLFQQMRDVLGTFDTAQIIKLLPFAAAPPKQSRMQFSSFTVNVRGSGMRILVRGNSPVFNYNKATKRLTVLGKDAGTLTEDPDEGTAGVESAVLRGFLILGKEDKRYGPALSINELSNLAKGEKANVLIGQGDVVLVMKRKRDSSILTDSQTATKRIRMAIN
- Assay notes: biochemical
Observation type: EC50

// map `CCOCCOCCCCCN(C(=O)N[C@H]1CCC[C@@H](Nc2nc(-c3c[nH]c4ncc(F)cc34)ncc2F)C1)C1CC1` to recorded EC50 (system: PB2 (Influenza A virus, UniProt P03428))
> 100 µM

Do the same for `O=C(NCc1ccc(C(=O)O)cc1)OCc1ccnc(C(=O)N[C@@H]2CCC[C@H](Nc3nc(-c4c[nH]c5ncc(F)cc45)ncc3F)C2)c1` please
< 5 µM

Do the same for `O=C(NCc1ccc2c(c1)OCO2)OCc1ccnc(C(=O)N[C@H]2CCC[C@@H](Nc3nc(-c4c[nH]c5ncc(F)cc45)ncc3F)C2)c1` please
> 100 µM

Quick one: `O=COCCOCCNC(=O)OCc1ccnc(C(=O)N[C@H]2CCC[C@@H](Nc3nc(-c4c[nH]c5ncc(F)cc45)ncc3F)C2)c1`
< 5 µM

Try this compound next: `CCOCc1ccnc(C(=O)N[C@H]2CCC[C@@H](Nc3nc(-c4c[nH]c5ncc(F)cc45)ncc3F)C2)c1`
5 to 25 µM

Do the same for `CCCCCCCCCCCN(Cc1ccccc1)C(=O)N[C@@H]1CCC[C@H](Nc2nc(-c3c[nH]c4ncc(F)cc34)ncc2F)C1` please
> 100 µM

Do the same for `CCOC(=O)CCN1CCC[C@@H](Nc2nc(-c3c[nH]c4ncc(F)cc34)ncc2F)C1` please
5 to 25 µM

Similarly, CCOCCOCCCCCN(C)C(=O)N1CCC(CNc2nc(-c3c[nH]c4ncc(F)cc34)ncc2F)C1 (centres unmarked) ?
> 100 µM

Next compound up: `CCOCc1cccc(COCCNC(=O)N[C@@H]2CCC[C@H](Nc3nc(-c4c[nH]c5ncc(F)cc45)ncc3F)C2)c1`
50 to 100 µM

Same lookup for `CCOCCOCCCCCN(C)C(=O)N(C)[C@H]1CCC[C@@H](Nc2nc(-c3c[nH]c4ncc(F)cc34)ncc2F)C1` , please.
> 100 µM

Also check `O=C(O)CCN1CCC[C@H](Nc2nc(-c3c[nH]c4ncc(F)cc34)ncc2F)C1`
5 to 25 µM

What do you have for CN(CCOCCOCCOCCO)C(=O)N[C@H]1CCC[C@@H](Nc2nc(-c3c[nH]c4ncc(F)cc34)ncc2F)C1 [Compound A190] ?
> 100 µM

Queued: `CCCCCCCCCCCN(C)C(=O)N[C@@H]1CCC[C@H](Nc2nc(-c3c[nH]c4ncc(F)cc34)ncc2F)C1`
50 to 100 µM

Again, but for `CCCCCCCCCCCNC(=O)N[C@@H]1CCC[C@H](Nc2nc(-c3c[nH]c4ncc(F)cc34)ncc2F)C1`
50 to 100 µM

The measured values listed here are drawn from patent US12357631B2.
